assay: chemical genetic growth profiling, strain panel (AID 1159580);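 also: tested at 20 µM; growth read once vehicle control cultures reached saturation at 30 °C; 1 = growth at the plate median or of vehicle wells; lower values mean less growth of the strain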; conditions: S. cerevisiae deletion strains, growth OD, locus YLR418C, strain cdc73
Hit rate of the full screen: of about 5,500 compounds, about 2,000 (36%) were called active. Not shown: some 18% with an inconclusive outcome. Rule as the data show it: active = normalized growth mostly below about 0.91 (no sharp cut-off); inconclusive = no clear call, values can overlap the other calls; inactive = mostly above about 0.92. Some of the results follow.
Labels: class 1 for active, class 0 for inactive

C[C@@H]1O[C@@H](OC[C@H]2OC(Oc3c(-c4ccc(O)c(O)c4)oc4cc(O)cc(O)c4c3=O)[C@H](O)[C@@H](O)[C@@H]2O)[C@H](O)[C@H](O)[C@H]1O (some centres undefined)    class 0
CC(C)(C)NCC(O)c1cc(O)cc(O)c1 (centres undefined)    class 0
CCOC(=O)NC1=C(C2CC2)C(=O)C(NC(=O)OCC)=C(C2CC2)C1=O    class 0
COc1ccc(-c2oc3cc(O[C@H]4O[C@H](CO)[C@@H](O)[C@H](O)[C@H]4O)c(OC)c(O)c3c(=O)c2OC)cc1O    class 0
COc1ccc(-c2cc(=O)c3c(O)cc(O[C@@H]4O[C@H](CO[C@H]5O[C@H](C)[C@@H](O)[C@H](O)[C@@H]5O)[C@@H](O)[C@H](O)[C@H]4O)cc3o2)cc1O    class 0
O=c1c(O)c(-c2ccc(O)c(O)c2)oc2cc(O)cc(O)c12    class 1
CC/C(=C(/CC)c1ccc(O)cc1)c1ccc(O)cc1    class 0
CC(C)c1c(O)ccc2c1CCC1C(C)(C)CCC[C@]21C (some centres undefined)    class 1
CN1C(C)(C)CCCC1(C)C    class 0
